Some sequences, each annotated with its measured self-aminoacylation.
# System: biotinyl-Trp-oxazolone
# assay name: self-aminoacylation, catalytic enhancement (BWO) (fold over background); higher = more active; k-Seq, kA / k0A0; sequences stand for … in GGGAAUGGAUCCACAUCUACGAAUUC…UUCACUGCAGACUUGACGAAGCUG
Variants at the floor of the assay were thinned out.
assay endpoint: self-aminoacylation

sequence_content="CUAUUUCAAACAAUAGGUCUG [Fam1A.1 aminoacylation ribozyme variant]" value_observed=0.803
sequence_content="AUGUUUGCUAACAGUCGCAAG [Fam3.1 aminoacylation ribozyme variant]" value_observed=3.34
sequence_content="UUUACCCUGGUUAUCGAGUGA [Fam2.1 aminoacylation ribozyme variant]" value_observed=10.6
sequence_content="ACAUACUUCAAGCAAUCGGUC [Fam1B.1 aminoacylation ribozyme variant]" value_observed=5.65
